# Tested on: Abl kinase
# experiment-description: Thermal denaturation of Abl kinase
# Format: binding, human
# conditions-used: 1 μM Abl kinase, 20 μM small molecule
compounds and their reported ΔTm (° C.) relative to unphosphorylated Abl
Could you give me the number in °C? Just the number is fine.

{"columns": ["cpd-smiles", "result-units", "experimental-result"],
 "data": [
  ["CC(C)(C)c1cc(NC(=O)Nc2cccc(Cl)c2Cl)n(-c2ccc3c(c2)CCNC3)n1", "°C", 3.2],
  ["CC(C)(C)c1cc(NC(=O)Nc2cccc(Cl)c2Cl)n(-c2ccc3c(c2)C(N)=NCC3)n1", "°C", 1.8]
]}

Asked: Any idea what its ΔTm (° C.) relative to unphosphorylated Abl is? The compound is "CC(C)(C)c1cc(NC(=O)Nc2cccc(Cl)c2Cl)n(-c2cc(CNC(=O)NS(C)(=O)=O)c3ccccc3c2)n1"
Given back: 4.0

Asked: Then "CC(=O)N1CCc2ccc(-n3nc(C(C)(C)C)cc3NC(=O)Nc3cccc(Cl)c3Cl)cc2C1" ?
Given back: 1.2

----------
Here's a batch of compounds along with measured IC50 for doubly phosphorylated p38-alpha kinase (Homo sapiens).
Write it as a number; the unit nM goes unstated.

{"columns": ["cpd-smiles", "result-units", "experimental-result"],
 "data": [
  ["CC(C)(C)c1cc(NC(=O)Nc2ccc(Cl)cc2)n(-c2ccc(CO)cc2)n1", "nM", 19],
  ["CC(C)(C)c1cc(NC(=O)Nc2cccc3ccccc23)n(-c2ccc(CO)cc2)n1", "nM", 67],
  ["CC(C)(C)c1cc(NC(=O)Nc2cccc3ccccc23)n(-c2cccc(CO)c2)n1", "nM", 19]
]}

With those in mind, consider the next compound.
Asked: # input compound: "O=C(Nc1cccc(Cl)c1Cl)Nc1cc(-c2ccccc2)nn1-c1cccc(CO)c1" ; wanted: its IC50
Given back: 85

----------
# tested-on: unphosphorylated p38-alpha kinase (Homo sapiens, UniProt Q16539, DEL261-261)
# Construct: 48 (6×His-TEV tag, full length); 6×His-TEV tag (N); purchased Decode Genetics, Inc; host or cells: E. coli
# Sequence (Q16539 with tags, fused parts or gaps DEL261-261): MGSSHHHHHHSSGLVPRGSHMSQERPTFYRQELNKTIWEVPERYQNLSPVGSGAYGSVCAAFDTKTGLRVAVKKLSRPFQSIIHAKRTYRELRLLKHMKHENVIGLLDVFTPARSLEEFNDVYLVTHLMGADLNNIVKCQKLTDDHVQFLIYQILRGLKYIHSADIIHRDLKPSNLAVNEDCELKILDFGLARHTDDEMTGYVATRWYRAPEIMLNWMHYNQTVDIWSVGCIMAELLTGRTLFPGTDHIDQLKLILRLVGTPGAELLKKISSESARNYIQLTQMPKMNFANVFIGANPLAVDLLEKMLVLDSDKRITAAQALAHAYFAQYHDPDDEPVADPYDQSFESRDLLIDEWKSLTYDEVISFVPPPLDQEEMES
# experiment-description: Thermal denaturation of unphosphorylated p38-alpha kinase
# Format: binding
# conditions-used: […] p38-alpha kinase, 15 μM small molecule
attribute-measured: ΔTm (° C.) relative to unphosphorylated apo p38 (°C)
State the answer as a number, implicitly in °C.

{"columns": ["cpd-smiles", "experimental-result"],
 "data": [
  ["CC1(O)CCN(C(=O)Cc2ccc(-n3nc(C(C)(C)C)cc3NC(=O)Nc3cccc(Cl)c3Cl)cc2)CC1", 12.6],
  ["CC(C)(C)c1cc(NC(=O)Nc2ccc(Cl)cc2)n(-c2ccc(CO)cc2)n1", 8.5],
  ["O=C(Nc1cccc(Cl)c1Cl)Nc1cc(-c2ccccc2)nn1-c1cccc(CO)c1", 9.4]
]}

Attention now turns to another entry.
Asked: Provide the documented ΔTm (° C.) relative to unphosphorylated apo p38 with unphosphorylated p38-alpha kinase (Homo sapiens, UniProt Q16539, DEL261-261) as the system for "NC(=O)Cc1cccc(-n2nc(-c3cscn3)cc2NC(=O)Nc2cccc(Cl)c2Cl)c1"
Given back: 6.7

----------
Below is a list of entries, each paired with its recorded log10 of IC50 value.
# tested-on: unphosphorylated p38-alpha kinase (Homo sapiens, UniProt Q16539, DEL261-261)
# Construct: 48 (6×His-TEV tag, full length); 6×His-TEV tag (N)
# experiment-description: Fluorescence affinity assay, unphosphorylated p38-alpha kinase
# conditions-used: ~24 nM enzyme; 1.0 uM SKF-86002; read-out: FP IC50 U-p38-alpha
// units: nM (pre-log); metric: IC50; scale: log10

{"columns": ["compound", "experimental-result"],
 "data": [
  ["CC(C)(C)c1cc(NC(=O)Nc2ccc(Cl)cc2)n(-c2ccc(CO)cc2)n1 [Example 61]", 1.38],
  ["Cc1ccc(NC(=O)Nc2cc(C(C)(C)C)nn2-c2ccc3c(c2)CCNC3)cc1Nc1ncccn1 [Example 94]", 1.00],
  ["CC(C)(C)c1cc(NC(=O)Nc2cccc3ccccc23)n(-c2ccc(OCC(=O)O)cc2)n1 [Example 92]", 1.72],
  ["O=C(Nc1cccc(Cl)c1Cl)Nc1cc(-c2ccccc2)nn1-c1cccc(CO)c1 [Example 63]", 1.45],
  ["CC(C)(C)c1cc(NC(=O)Nc2cccc3ccccc23)n(-c2cccc(CO)c2)n1 [Example 71]", 1.23]
]}

Asked: // returns reported log10 of IC50 for input CC(C)(C)c1cc(NC(=O)Nc2cccc3ccccc23)n(-c2ccc(CO)cc2)n1 [Example 72]
Given back: 1.60

Asked: Same question for CC1(O)CCN(C(=O)Cc2ccc(-n3nc(C(C)(C)C)cc3NC(=O)Nc3cccc(Cl)c3Cl)cc2)CC1 [Example 70] please.
Given back: 1.41

Asked: Next up: NC(=O)Cc1cccc(-n2nc(-c3cscn3)cc2NC(=O)Nc2cccc(Cl)c2Cl)c1 [Example 78]
Given back: 2.37

----------
# tested-on: doubly phosphorylated p38-alpha kinase (Homo sapiens, UniProt Q16539)
# Construct: 6xHis ([…], seen only in the listing) (C); purchased Roche Applied Diagnostics
# Sequence (Q16539 with tags, fused parts or gaps): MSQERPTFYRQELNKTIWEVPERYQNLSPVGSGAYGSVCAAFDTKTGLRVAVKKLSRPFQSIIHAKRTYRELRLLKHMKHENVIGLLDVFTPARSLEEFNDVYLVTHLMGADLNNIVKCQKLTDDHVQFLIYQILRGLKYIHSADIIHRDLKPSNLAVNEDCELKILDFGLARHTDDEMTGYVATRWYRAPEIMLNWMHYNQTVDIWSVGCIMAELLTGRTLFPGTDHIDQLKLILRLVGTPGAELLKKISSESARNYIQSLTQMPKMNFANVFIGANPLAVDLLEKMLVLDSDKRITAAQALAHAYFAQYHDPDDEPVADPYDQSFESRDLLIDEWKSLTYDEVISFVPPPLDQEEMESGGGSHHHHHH
# experiment-description: Thermal denaturation of doubly phosphorylated p38-alpha kinase
# Type: binding
# conditions-used: 0.5 μM p38-alpha kinase, 20 μM small molecule
Reported ΔTm (° C.) relative to doubly phosphorylated p38 is given for each of the following molecules.
Quick reminder: number only, in °C, skip the unit.

Asked: I have this molecule here, "CC(C)(C)c1cc(NC(=O)Nc2cccc3ccccc23)n(-c2ccc(CO)cc2)n1" , and I need its recorded ΔTm (° C.) relative to doubly phosphorylated p38.
Given back: 8.1

Asked: What do you get for "CC(C)(C)c1cc(NC(=O)Nc2cccc3ccccc23)n(-c2cccc(C(C)(C)O)c2)n1" ?
Given back: 5.6

Asked: Could you do the same for "CC1(O)CCN(C(=O)Cc2ccc(-n3nc(C(C)(C)C)cc3NC(=O)Nc3cccc(Cl)c3Cl)cc2)CC1" , please?
Given back: 8.7

Asked: Next: "O=C(Nc1cccc(Cl)c1Cl)Nc1cc(-c2ccccc2)nn1-c1cccc(CO)c1"
Given back: 5.0

Asked: Try this molecule too: "CC(C)(C)c1cc(NC(=O)Nc2cccc(Cl)c2Cl)n(-c2ccc(CC(N)=O)cc2)n1"
Given back: 9.4

Asked: Same lookup for "NC(=O)Cc1cccc(-n2nc(-c3ccccc3)cc2NC(=O)Nc2cccc(Cl)c2Cl)c1" , please.
Given back: 5.3

Asked: Next molecule up: "NC(=O)Cc1cccc(-n2nc(-c3cscn3)cc2NC(=O)Nc2cccc(Cl)c2Cl)c1"
Given back: 3.9

Asked: Please give the result for CC(C)(C)c1cc(NC(=O)Nc2cccc3ccccc23)n(-c2ccc(C(O)C(F)(F)F)cc2)n1 (stereo not shown) too.
Given back: 5.9

Asked: Ok, now "CC(C)(C)c1cc(NC(=O)Nc2cccc3ccccc23)n(-c2cccc(CO)c2)n1"
Given back: 9.6

Asked: Try "CC(C)(C)c1cc(NC(=O)Nc2ccc(Cl)cc2)n(-c2ccc(CO)cc2)n1" next.
Given back: 5.9

----------
# tested-on: unphosphorylated p38-alpha kinase (Homo sapiens, UniProt Q16539, DEL261-261)
# Construct: 48 (6×His-TEV tag, full length); 6×His-TEV tag (N); purchased Decode Genetics, Inc; host or cells: E. coli
# experiment-description: Fluorescence affinity assay, unphosphorylated p38-alpha kinase
# Format: binding
# conditions-used: doubly phosphorylated vs unphosphorylated p38-alpha; >1.0 = preference for unphosphorylated form
Mark 1 for reported Ratio IC50s of 1 or greater; mark 0 for anything smaller.

The examples below pair each entry with its known result.
{"columns": ["cpd-smiles", "tested-on", "category"],
 "data": [
  ["NC(=O)Cc1cccc(-n2nc(-c3cscn3)cc2NC(=O)Nc2cccc(Cl)c2Cl)c1", "unphosphorylated p38-alpha kinase (Homo sapiens, UniProt Q16539, DEL261-261)", 1],
  ["Cc1ccc(NC(=O)Nc2cc(C(C)(C)C)nn2-c2ccc3c(c2)CCNC3)cc1Nc1ncccn1", "unphosphorylated p38-alpha kinase (Homo sapiens, UniProt Q16539, DEL261-261)", 1],
  ["CC(C)(C)c1cc(NC(=O)Nc2cccc3ccccc23)n(-c2ccc(CO)cc2)n1", "unphosphorylated p38-alpha kinase (Homo sapiens, UniProt Q16539, DEL261-261)", 1],
  ["CC(C)(C)c1cc(NC(=O)Nc2cccc3ccccc23)n(-c2cccc(CO)c2)n1", "unphosphorylated p38-alpha kinase (Homo sapiens, UniProt Q16539, DEL261-261)", 1],
  ["CC(C)(C)c1cc(NC(=O)Nc2cccc(Oc3cccnc3)c2)n(-c2cccc(CC(N)=O)c2)n1", "unphosphorylated p38-alpha kinase (Homo sapiens, UniProt Q16539, DEL261-261)", 1],
  ["CC(C)(C)c1cc(NC(=O)Nc2ccc(Cl)cc2)n(-c2ccc(CO)cc2)n1", "unphosphorylated p38-alpha kinase (Homo sapiens, UniProt Q16539, DEL261-261)", 0],
  ["NC(=O)Cc1cccc(-n2nc(-c3ccccc3)cc2NC(=O)Nc2cccc(Cl)c2Cl)c1", "unphosphorylated p38-alpha kinase (Homo sapiens, UniProt Q16539, DEL261-261)", 1],
  ["CC(C)(C)c1cc(NC(=O)Nc2cccc3ccccc23)n(-c2cccc(C(C)(C)O)c2)n1", "unphosphorylated p38-alpha kinase (Homo sapiens, UniProt Q16539, DEL261-261)", 0],
  ["CC(C)(C)c1cc(NC(=O)Nc2cccc3ccccc23)n(-c2ccc(OCC(=O)O)cc2)n1", "unphosphorylated p38-alpha kinase (Homo sapiens, UniProt Q16539, DEL261-261)", 1],
  ["CC(C)(C)c1cc(NC(=O)Nc2cccc(Cl)c2Cl)n(-c2ccc(CC(=O)N3CCS(=O)(=O)CC3)cc2)n1", "unphosphorylated p38-alpha kinase (Homo sapiens, UniProt Q16539, DEL261-261)", 1]
]}

Next up:
Asked: Please tell me: is the compound "CC1(O)CCN(C(=O)Cc2ccc(-n3nc(C(C)(C)C)cc3NC(=O)Nc3cccc(Cl)c3Cl)cc2)CC1" at or over 1 in terms of Ratio IC50s?
Given back: 1

Origin of measurements: patent US20080220497A1
